Assay: Quantitative High-Throughput drug screen in 47 multiple myeloma cell lines against the NCATS MIPE library collection: KMS20_JCRB cell viability assay (AID 1918973); also: nearly all actives have a fitted effect of over 45% in size
Details: CellTiter-Glo ATP, 48 h; series mostly up to 45.8 µM
Inconclusive results are not listed. Calls of active or inactive are those of the source. Calls follow the shape of the dose curve; as a rule, active = well fitted cell-killing curve with a large enough effect; inconclusive = small, poorly fitted or top-dose-only effect, or effect the other way; inactive = no such curve, though single readings can be large or run the other way.
Parameter call: string, one of 1 (yes) (active), 0 (no) (inactive)

Exercise: Please state the recorded outcome for this molecule: C=CC(=O)Nc1cc2c(Nc3ccc(F)c(Cl)c3)ncnc2cc1OCCCN1CCOCC1
Solution: 1 (yes)

Exercise: Next: C1=CCOCc2cc(ccc2OCCN2CCCC2)Nc2nccc(n2)-c2cccc(c2)OCC1
Solution: 1 (yes)

Exercise: // repeat for Cc1cc(CN2CCN(c3c(Br)cnc4nc(-c5ccc(N6CCN(C)CC6)cc5)[nH]c34)CC2)no1 and report
Solution: 1 (yes)

Exercise: How about NC(=O)c1c(OCc2c(F)cc(Br)cc2F)nsc1NC(=O)NCCCCN1CCCC1 ?
Solution: 1 (yes)

Exercise: Similarly, CNc1nccc(-c2cccnc2Oc2cc(C(=O)Nc3cccc(C(F)(F)F)c3)ccc2C)n1 ?
Solution: 1 (yes)

Exercise: Further, for Cc1cc(Nc2cc(CN3CCOCC3)c3nc(C)c(Cc4ccc(Cl)cc4F)n3n2)n[nH]1 ?
Solution: 1 (yes)

Exercise: And the next one, O=C(Nc1cn[nH]c1-c1nc2ccc(CN3CCOCC3)cc2[nH]1)NC1CC1 ?
Solution: 1 (yes)

Exercise: And the next one, Nc1ccn([C@@H]2O[C@H](CO)[C@H](O)C2(F)F)c(=O)n1 ?
Solution: 1 (yes)

Exercise: Follow-up entry: CC1(O)CC(c2nc(-c3ccc4ccc(-c5ccccc5)nc4c3)c3c(N)nccn23)C1 (configuration not stated)
Solution: 1 (yes)

Exercise: // query: c1nc2nc(Nc3ccc(N4CCOCC4)cc3)nc(NC3CCCCC3)c2[nH]1
Solution: 1 (yes)

Exercise: Input CC(=O)c1c(C)c2cnc(Nc3ccc(N4CCNCC4)cn3)nc2n(C2CCCC2)c1=O
Solution: 1 (yes)

Exercise: Entry to check: Cc1nc(Nc2n[nH]c3c2CN(C(=O)N[C@H](CN(C)C)c2ccccc2)C3(C)C)c2sccc2n1
Solution: 1 (yes)

Exercise: Next entry: CC(C)(C)c1cc(C(C)(C)C)c(NC(=O)c2c[nH]c3ccccc3c2=O)cc1O
Solution: 0 (no)

Exercise: Same again, this time with Cc1c(C)n(Cc2ccc(-c3ccccc3C(=O)O)cc2)c2ccc(C(=O)N[C@@H](C)c3ccc([N+](=O)[O-])cc3)cc12
Solution: 1 (yes)

Exercise: Next record, please: CN(C)c1nc(Cc2ccc(NC(=O)c3ccc4ccccc4c3)cc2)nc(Cl)c1CC(=O)O
Solution: 0 (no)

Exercise: Similarly, COC(=O)C1=C(C)NC(C)=C(C(=O)OCCN2CCN(C(c3ccccc3)c3ccccc3)CC2)C1c1cccc([N+](=O)[O-])c1 (configuration not stated) ?
Solution: 0 (no)

Exercise: Cool, now CC=C1NC(=O)[C@H]2CSSCCC=C[C@H](CC(=O)N[C@H](C(C)C)C(=O)N2)OC(=O)[C@H](C(C)C)NC1=O
Solution: 1 (yes)

Exercise: # repeat for COc1ccc(-c2cc3c(C)nc(N)nc3n(C3CCC(OCCO)CC3)c2=O)cn1 (configuration not stated)
Solution: 1 (yes)

Exercise: Can you check N#CCNC(=O)c1ccc(-c2ccnc(Nc3ccc(N4CCOCC4)cc3)n2)cc1 next?
Solution: 1 (yes)

Exercise: Also CN1CCN(Cc2ccc(NC(=O)Nc3ccc(Oc4cc(NC(=O)C5CC5)ncn4)cc3)cc2C(F)(F)F)CC1 , if possible.
Solution: 1 (yes)

Exercise: Cool, now Cc1cn2c(-c3cn[nH]c3)cnc2c(Nc2ccc(C(=O)N3CCNCC3)cc2F)n1
Solution: 1 (yes)

Exercise: Try this molecule next: Cn1cc(-c2[nH]c3cc(NC(=O)[C@H](N)C4CCCCC4)cc4c3c2C=NNC4=O)cn1
Solution: 1 (yes)

Exercise: Entry CC(C)(O)c1cc2nc(-c3cnc(N)nc3)nc(N3CCOCC3)c2s1 please
Solution: 1 (yes)

Exercise: Subsequent entry: O=C(C=Cc1c(C(=O)O)[nH]c2cc(Cl)cc(Cl)c12)Nc1ccccc1
Solution: 0 (no)

Exercise: Next entry: c1ccc2c(CCNc3ccc(Nc4ccncc4)cc3)c[nH]c2c1
Solution: 1 (yes)

Exercise: Here is the next molecule: COc1cc(C(=O)N2CCC(N3CCN(C)CC3)CC2)ccc1Nc1ncc2c(n1)N(C)c1ccccc1C(=O)N2C
Solution: 1 (yes)

Exercise: Next: CC(C)c1ccccc1Cc1cc(C(=O)Nc2ccc(S(=O)(=O)c3ccccc3C(C)(C)C)cc2)c(O)c(O)c1O
Solution: 1 (yes)

Exercise: And for CC(=O)Nc1nc(C)c(-c2ccc(Cl)c(S(=O)(=O)NCCO)c2)s1 ?
Solution: 1 (yes)

Exercise: Can you handle CN1CC[C@@H](c2c(O)cc(O)c3c(=O)cc(-c4ccccc4Cl)oc23)[C@@H](O)C1 next?
Solution: 1 (yes)

Exercise: Entry CC(=O)Nc1sc2c(c1-c1nc3ccccc3s1)CNC2 please
Solution: 1 (yes)

Exercise: Please answer likewise for CC(C)(C)c1cnc(CSc2cnc(NC(=O)C3CCNCC3)s2)o1
Solution: 1 (yes)

Exercise: Proceed to CC(C)c1cc(C(=O)N2Cc3ccc(CN4CCN(C)CC4)cc3C2)c(O)cc1O
Solution: 1 (yes)

Exercise: Same thing, different molecule: Cc1c(NC(=O)OC[C@@H]2COCCN2)cn2ncnc(Nc3ccc4c(cnn4Cc4cccc(F)c4)c3)c12
Solution: 1 (yes)

Exercise: Also, Nc1ccn([C@@H]2CS[C@H](CO)O2)c(=O)n1 please.
Solution: 1 (yes)

Exercise: Also need CCN1CCN(CC(=O)Nc2ccc(-c3cccc4c(=O)cc(N5CCOCC5)oc34)c3sc4ccccc4c23)CC1 , thanks.
Solution: 1 (yes)

Exercise: Another: NCC(=O)Nc1ccc(-n2nc(C(F)(F)F)cc2-c2ccc3c(ccc4ccccc43)c2)cc1
Solution: 1 (yes)

Exercise: Also CC1(C)CC(=O)c2c(C(F)(F)F)nn(-c3ccc(C(N)=O)c(NC4CCC(OC(=O)CN)CC4)c3)c2C1 (configuration not stated) ?
Solution: 1 (yes)

Cited source for all entries: PubChem BioAssay (NCATS)
